# assay: E. coli acrAB mutant growth effects, primary screen, E. coli filamentation inducers, strain DRC39, OD650, 24 h (AID 1178);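 note: growth measured as culture turbidity by optical density at 650 nm; test concentration not given here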
# assay-conditions: higher = more signal, called active from +8 up or from −8 down
reported-metric: z-score
Output: the number by itself.

Completed entries (count: 3):
Cc1ccc(S[C@]2(C(=O)NC(C)C)CC(=O)N(C3Cc4ccccc4C3)[C@@H]2c2ccc(CO)cc2I)cc1	0.525
C=CCC(OC(C)=O)[C@@H]1[C@@H](N(Cc2ccc(-c3ccccc3)cc2)C(=O)c2cccc3ccccc23)c2cc(OCCCO)ccc2N1C(=O)Cc1ccc2ccccc2c1 (some centres undefined)	0.326
CC[C@@H]1[C@H]2C3C(=O)N(CC)C(=O)C3CC(=O)[C@H]2[C@H](c2ccc(C)cc2)N1S(=O)(=O)c1ccc(C)cc1 (some centres undefined)	-0.339

Problem: Give the measured z-score for CCOC(=O)C[C@H]1[C@H](OC(=O)c2ccccc2-c2ccccc2)[C@@H](NC(=O)CC(C)C)c2cc(OCCCO)ccc2N1C(=O)c1ccc2ccccc2n1
Solution: -0.418

---

# experimental-system: Concanavalin-A (Canavalia ensiformis)
# assay: ConA small-molecule binders, primary screen, artefact control for SMM control protein annotation, biochemical, small-molecule microarray, Alexa647 label, 635 nm (AID 1127);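 note: z combines 667 nm emission intensity with signal-to-noise across three replicate slides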
# assay-conditions: ConA-A647 binding fluorescence, higher = more signal
reported-metric: composite z-score
Output: the number by itself.

CO[C@H]1O[C@H](CO)[C@@H](OC(=O)Nc2ccc(Oc3ccccc3)cc2)[C@H](OC(=O)Nc2ccccc2-c2ccccc2)[C@@H]1OC(=O)Nc1ccccc1-c1ccccc1	1.14
CCOC(=O)[C@H]1C/C=C/C[C@H](C(=O)OCC)C(=O)O[C@H]2[C@@H](OC)O[C@H](CO)[C@@H](OC(=O)CCc3ccccc3)[C@@H]2OC1=O	-0.233

Kindly consider the entry below.
Problem: Give the measured composite z-score for COC(=O)[C@@]1(Cc2ccccc2)[C@H]2c3cc(C(=O)N4CCCC4)n(C[C@H](O)CO)c3C[C@H]2CN1C(=O)c1ccccc1
Solution: -0.311

---

compounds and their reported composite z-score
# assay: binders of probe aFSTL3 on microarray, primary screen, stem cell growth factor project, biochemical, small-molecule microarray, fluorescence 635/667 (AID 1064);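 note: measures binding of the biotinylated anti-FSTL3 antibody to printed compounds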
# assay-conditions: higher = more signal
Output: the number by itself.

Completed entries (count: 5):
CN(C)CCCNC(=O)[C@@H]1c2ccccc2C(=O)N(CC23CC4CC(CC(C4)C2)C3)[C@H]1c1ccc(CO)cc1	-0.782
O=C1OCC=C[C@H]2OC34C=CCN(c5ccc(Cl)cc5)C(=O)[C@H]3N(CCCCCO)C(=O)[C@@H]4[C@@H]12 (stereo partly drawn)	0.716
NC(=O)N1C(=O)C2C(C1=O)C1C=C(CCCO)C2C(c2cccs2)N1Cc1cc2c(cc1Br)OCO2 (stereo not drawn)	-0.137
C[C@]12C(=O)N(CCCCCCO)[C@@H]3C(=O)N(c4ccc(Cl)cc4)CC=CC31O[C@@H]1/C=C\CCCOC(=O)C12 (stereo partly drawn)	0.299
COCCOC(=O)N1C(=O)[C@@]2(c3cc(C#CC4=CCCCC4)ccc31)[C@H](c1ccc(O)cc1)N1[C@H](c3ccccc3)[C@H](c3ccccc3)OC(=O)[C@H]1[C@@H]2C(=O)Nc1nc2ccccc2s1	-0.177

Problem: Give the measured composite z-score for Cc1ccc(C(C)CC(O)C2C=CC3C(=O)N(c4ccccc4)C(=O)C3N2Nc2ccc(C(C)C)cc2)o1 (stereo not drawn)
Solution: 1.15

Problem: Give the measured composite z-score for CN(C)CCCCNC(=O)[C@H]1C[C@H]2C(=O)N3CCC[C@H]3C(=O)N2[C@H]1c1ccc(O)cc1
Solution: -1.12

Problem: Give the measured composite z-score for C[n+]1ccc(CCCO)cc1
Solution: 1.03

---

molecules and their reported composite z-score
# assay: small-molecule microarray binders of probe aDKK1, primary screen, biochemical, biotinylated probe, 635/667 nm fluorescence (AID 1099);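 note: score merges 667nm spot fluorescence with signal to noise across triplicate slides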
# assay-conditions: higher = more signal
Output: the number by itself.

Completed entries (count: 4):
CC(C)C[C@@H]1NC(=O)[C@H]2C[C@@H](C(=O)NCCCCCC[N+](C)(C)C)[C@@H](c3cccc(OCCO)c3)N2C1=O	-0.231
CCCCN1CC=CC23O[C@@H]4/C=C\CCC(C)OC(=O)C4[C@H]2C(=O)N(CCCCCCO)[C@@H]3C1=O (some centres not stated)	-0.264
O=C1c2ccccc2[C@](Cc2ccccc2I)(C(=O)NCc2ccccc2)[C@H](c2ccc(CO)cc2)N1C1CCCCC1	0.969
CC=CC(O)C1C=CC2C(=O)N(C)C(=O)C2N1Nc1ccc([N+](=O)[O-])cc1[N+](=O)[O-] (configuration not stated)	0.121

Problem: Give the measured composite z-score for C=CCN1C(=O)[C@@]2(O[C@@H](CCO)[C@H]([Si](C)(C)c3ccc(OC)cc3)[C@H]2C)c2cc(N3C(=O)c4ccccc4Oc4ccccc43)ccc21
Solution: -0.0987

Problem: Give the measured composite z-score for O=C(CCCCCCC(=O)Nc1ccccc1)N/N=C/c1ccccc1
Solution: -0.176

Problem: Give the measured composite z-score for COCCOC(=O)N1C(=O)[C@@]2(c3cc(C#CC4(O)CCCCCC4)ccc31)[C@H](c1ccccc1OCCO)N1[C@H](c3ccccc3)[C@H](c3ccccc3)OC(=O)[C@H]1[C@@H]2C(N)=O
Solution: 0.255

---

# experimental-system: NADPH oxidase 4 (Homo sapiens) (UniProt Q9NPH5)
# Sequence (Q9NPH5 whole entry, looked up): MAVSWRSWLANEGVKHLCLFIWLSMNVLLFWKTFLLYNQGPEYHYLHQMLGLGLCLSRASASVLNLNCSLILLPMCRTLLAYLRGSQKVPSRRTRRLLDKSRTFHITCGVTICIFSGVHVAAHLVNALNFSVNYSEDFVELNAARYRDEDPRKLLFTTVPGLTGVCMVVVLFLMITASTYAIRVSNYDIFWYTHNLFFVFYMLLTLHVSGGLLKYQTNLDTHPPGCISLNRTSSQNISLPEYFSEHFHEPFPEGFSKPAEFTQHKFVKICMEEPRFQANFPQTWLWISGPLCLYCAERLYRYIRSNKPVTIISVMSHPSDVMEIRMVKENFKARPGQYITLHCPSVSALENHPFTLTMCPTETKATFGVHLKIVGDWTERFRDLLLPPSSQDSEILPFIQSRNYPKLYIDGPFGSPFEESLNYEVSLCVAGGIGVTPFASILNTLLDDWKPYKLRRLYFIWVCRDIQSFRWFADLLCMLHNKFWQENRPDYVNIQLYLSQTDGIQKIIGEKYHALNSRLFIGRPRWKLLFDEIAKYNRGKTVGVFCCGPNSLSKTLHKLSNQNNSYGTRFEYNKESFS
# assay: NOX4-dependent H2O2 signal modulators, primary screen, NOX inhibitor project, cell-based, HEK293-NOX4, tetracycline-induced, Amplex Red fluorescence (AID 1160)
# assay-conditions: 45 min, higher = more signal, called active from +8 up or from −8 down
Binary call on z-score: met from 0.2 upward, not met beneath that.

O=C1O[C@@H](c2ccccc2)[C@@H](c2ccccc2)N2[C@@H](c3ccccc3OCCO)[C@]3(C(=O)Nc4ccc(C#CCCO)cc43)[C@@H](C(=O)Nc3nc4ccccc4s3)[C@H]12	met
C=C(/C(=C/C[C@@H](OC(=O)c1ccncc1)c1ccc(OCCO)cc1)c1cc(C(=O)OC)ccc1OC)C(C)C	not met
COCCOC(=O)N1C(=O)[C@@]2(c3cc(C#CC4(O)CCCCCC4)ccc31)[C@H](C(N)=O)[C@H]1C(=O)O[C@H](c3ccccc3)[C@H](c3ccccc3)N1[C@@H]2c1ccccc1OCCO	not met
CO[C@H]1O[C@H](CO)[C@@H](OC(=O)c2ccc(Br)cc2)[C@@H]2OC(=O)[C@@H](Cc3ccc4ccccc4c3)C/C=C/C[C@H](Cc3ccc4ccccc4c3)C(=O)O[C@@H]12	not met
CCN(CC)c1ccc(N2CC=CC34O[C@@H]5/C=C\CCC(C)OC(=O)C5[C@H]3C(=O)N(CCO)[C@@H]4C2=O)cc1 (stereo partly drawn)	met

Problem: In plain terms: is recorded z-score at least 0.2 for CCCC=C(CCC)[C@@H](NP(=O)(c1ccccc1)c1ccccc1)c1ccc(C(F)(F)F)cc1 ?
Solution: met

Problem: In plain terms: is recorded z-score at least 0.2 for COCCCNC(=O)[C@]1(Cc2ccccc2CN=[N+]=[N-])N=C(c2ccc(OCCCO)cc2)O[C@@H]1c1ccccc1 ?
Solution: not met

Problem: In plain terms: is recorded z-score at least 0.2 for CC(C)(C)OC(=O)CC[C@]1(C(=O)O)N=C(c2ccc(OCCCO)cc2)O[C@H]1c1ccccc1CN=[N+]=[N-] ?
Solution: met

Problem: In plain terms: is recorded z-score at least 0.2 for CCOC(=O)C[C@H]1[C@H](OC(=O)Cc2ccc3c(c2)OCO3)[C@@H](NC(=O)C2CCCCC2)c2cc(OCCCO)ccc2N1C(=O)c1ccc2ccccc2n1 ?
Solution: met

Problem: In plain terms: is recorded z-score at least 0.2 for O=C1c2ccccc2[C@@]2(Cc3ccccc3N(C3CC3)C2=O)[C@H](c2ccc(CO)cc2)N1C1CCCCC1 ?
Solution: not met

Problem: In plain terms: is recorded z-score at least 0.2 for COCCCNC(=O)[C@@]1(Sc2ccc(C)cc2)CC(=O)N(Cc2cc(C(F)(F)F)cc(C(F)(F)F)c2)[C@@H]1c1ccc(CO)cc1 ?
Solution: met

Problem: In plain terms: is recorded z-score at least 0.2 for CO[C@H]1O[C@H](CO)[C@@H](OC(=O)Nc2ccc(C(F)(F)F)cc2)[C@H](OC(=O)Nc2ccc3c(c2)OCO3)[C@H]1OC(=O)Nc1ccc2c(c1)OCO2 ?
Solution: not met

Problem: In plain terms: is recorded z-score at least 0.2 for COc1ccc([Si](C)(C)[C@H]2[C@H](CC(=O)N3Cc4ccccc4C[C@H]3CO)O[C@@]3(C(=O)N(Cc4cccc(N5CCCCC5=O)c4)c4ccccc43)[C@@H]2C)cc1 ?
Solution: met

---

# System: Human papillomavirus type 1a E7 protein (residues 1-88)
# assay: HPV1a E7 small-molecule binders, primary screen, biochemical, small-molecule microarray, residues 1-88, 635 nm (AID 1129)
# assay-conditions: small-molecule microarray binding, fluorescence 635 nm; higher = more signal
molecules and their reported composite z-score
Output: the number by itself.

CC(C)(C)OC(=O)CC[C@]1(C(=O)NCCN2CCOCC2)N=C(c2ccc(OCCCO)cc2)O[C@H]1c1ccccc1	0.358
CCCCC(=C=CC[C@@H](O)c1ccc(OCCO)cc1)C[C@@H](O)COCc1ccccc1	-0.445
COC(=O)[C@@]1(Cc2ccc(OC)cc2)[C@H]2c3cc(C(=O)N(C)C)n(CCc4c[nH]c5ccc(O)cc45)c3C[C@H]2CN1C(=O)c1ccccc1	1.21
CC(C)C(O)C1C=CC2C(=O)N(C)C(=O)C2N1Nc1ccccc1 (stereo not drawn)	1.14
O=C(CCCCCCC(=O)Nc1ccccc1)N/N=C/c1ccccc1	-0.581

Problem: Give the measured composite z-score for COC(=O)[C@@]1(Cc2ccc(F)cc2)[C@H]2c3cc(C(=O)N4CCCC4)n(CCF)c3C[C@H]2CN1C(=O)c1ccccc1
Solution: 1.2

Problem: Give the measured composite z-score for C#CCNC(=O)[C@H](Cc1ccccc1)NC(=O)[C@@H](N=[N+]=[N-])C(C)C
Solution: 0.873

Problem: Give the measured composite z-score for COc1cc(CO)cc(I)c1O[C@H]1C=C(C(=O)NCCO)C[C@@H](NCc2ccccc2F)[C@@H]1O
Solution: 1.17

Problem: Give the measured composite z-score for C=CCNC(=O)[C@@H]1[C@H]2C(=O)O[C@H](c3ccccc3)[C@H](c3ccccc3)N2[C@H](c2ccc(OCCO)cc2)[C@@]12C(=O)N(C(=O)OCCOC)c1ccc(C#CC3=CCCCC3)cc12
Solution: 1.23

Problem: Give the measured composite z-score for COc1cc(OC)c(C(O)C2C=CC3C(=O)N(c4ccccc4)C(=O)C3N2Nc2ccc(C#N)cc2)cc1Br (stereo not drawn)
Solution: 1.02

Problem: Give the measured composite z-score for O=C1OCCC=C[C@H]2OC34C=CCN(c5ccc(Cl)cc5)C(=O)[C@H]3N(CCCCCO)C(=O)[C@@H]4C12 (stereo partly drawn)
Solution: -0.457

Problem: Give the measured composite z-score for NC(=O)N1C(=O)C2C(C1=O)C1C=C(CCCO)C2C(c2cccs2)N1Cc1cc2c(cc1Br)OCO2 (stereo not drawn)
Solution: -0.212

Problem: Give the measured composite z-score for COc1ccc(C(O)C2C=CC3C(=O)N(Cc4ccccc4)C(=O)C3N2n2cnnc2)c2ccccc12 (stereo not drawn)
Solution: 0.782

Problem: Give the measured composite z-score for CCCNC(=O)[C@@]1(c2ccc([N+](=O)[O-])cc2)CC(=O)N(C2CCCCC2)[C@@H]1c1ccc(CO)cc1I
Solution: 0.949

Problem: Give the measured composite z-score for CC(C)C[C@@H]1NC(=O)[C@H]2C[C@@H](C(=O)NCCCCCC[N+](C)(C)C)[C@@H](c3cccc(OCCO)c3)N2C1=O
Solution: 0.381
